Target: SARS-CoV2 spike protein S1 receptor binding domain (RBD) (SARS-CoV2, UniProt P0DTC2 319-541)
Below, each entry is listed with its recorded Kd.
Reply numerically in nM, unit not repeated.

>  <Binder>
COVID-19 therapeutic protein CTP-β2 (designed binder) MESELASVNYNTNITKENVQANGEEQAKTFLDKFNHEAEDLFYQSSGLGKGDFR

>  <Measurement Unit>
nM

>  <Kd>
42.9

$$$$
>  <Binder>
COVID-19 therapeutic protein CTP-γ3 (designed binder) MKASELADNVYNTNITKENVQNMNEEQAKTFLDKFNHEAEDLFYQSSGLGKGDFR

>  <Measurement Unit>
nM

>  <Kd>
39.2

$$$$

Enquiry: Look up Kd: COVID-19 therapeutic protein CTP-α1 (designed binder) MKSELASNVYNTNITKENVQNMNEEQAKTFLDKFNHEAEDLFYQSSGLGKGDFR
Return: 37.8

Source: patent US20230406886A1
